experimental_protocol: Toxicity liver stage against HepG2, at 10uM
Assay type: cell-based
Design: test concentration 10 uM, cell line HepG2-A16-CD81EGFP
test_conditions: human, HepG2-A16-CD81EGFP cells; read-out: INHIBITION
Please respond with reported cytotoxicity at 10 µM for every item in the list.
Enter your answer as a number in %; do not include the unit.

-- ask Find the recorded cytotoxicity at 10 µM belonging to c1cncc(COCC2C[C@@H]3OCCN(Cc4cccnc4)[C@H]3C2)c1 (stereo partly drawn) and report it.
-- reply 12.2

-- ask cytotoxicity at 10 µM lookup needed for CN(CCCn1cnc2c(N)ncnc21)Cc1ccccc1 , thanks.
-- reply -4.87

-- ask Query (molecule): CCn1nc(C)c2ncnc(NCC(=O)N3CCOCC3)c21 ; field requested: cytotoxicity at 10 µM
-- reply 3.54

-- ask Given CC1CN(C)CCN1C(=O)c1cccn1Cc1cccnc1 (stereo not drawn) , state its recorded cytotoxicity at 10 µM.
-- reply -13.5

-- ask Quick one: cytotoxicity at 10 µM of CCC(=O)N1CCN(CCn2cccn2)c2ncccc2C1 ?
-- reply -106

-- ask Entry Cc1ccccc1C1(CNC(=O)c2cccc(S(C)(=O)=O)c2)CC1 has what cytotoxicity at 10 µM?
-- reply -0.185

-- ask Given the entry CC(CNC(=O)c1cnc[nH]1)Oc1ccc(Cl)cc1 (stereo not drawn) , report its measured cytotoxicity at 10 µM.
-- reply -7.09

-- ask For the molecule O=C(c1cncc(N2CCC(O)(CO)CC2)n1)N1CCCC1 , what cytotoxicity at 10 µM is on record?
-- reply -7.71

Source: ChEMBL document CHEMBL4513216
